Test system: HEK293
Assay: IC50 for inhibition of ZIKV NS1 production

{"columns": ["Molecular String", "IC50 / µM"],
 "data": [
  ["CC1=CC(=O)c2ccccc2C1=O", 44],
  ["CC[n+]1c(/C=C/C=C2/N(C)c3ccccc3C2(C)C)sc2ccccc21", 4],
  ["CC[C@@H]1[C@@H](C)O[C@@](O)([C@@H](C)[C@H](O)[C@H](C)[C@H]2OC(=O)/C=C/C=C/[C@H](C)[C@@H]([C@@H](C)[C@@H](O)[C@H](C)[C@@]3(O)C[C@@H](O[C@H]4C[C@H](O)[C@H](O)[C@H](C)O4)[C@H](CC)[C@@H](C)O3)OC(=O)/C=C/C=C/[C@@H]2C)C[C@H]1O[C@H]1C[C@H](O)[C@H](O)[C@H](C)O1", 3.9],
  ["CC(C)(O)/C=C/C(=O)[C@](C)(O)[C@H]1[C@H](O)C[C@@]2(C)[C@@H]3CC=C4[C@@H](C=C(O)C(=O)C4(C)C)[C@]3(C)C(=O)C[C@]12C", 45],
  ["Cn1cc(-c2[nH]c3cc(NC(=O)[C@H](N)C4CCCCC4)cc4c3c2C=NNC4=O)cn1", 0.49],
  ["[O-][n+]1ccccc1SSc1cccc[n+]1[O-]", 1.4],
  ["O[C@@H](CNC[C@H](O)[C@H]1CCc2cc(F)ccc2O1)[C@@H]1CCc2cc(F)ccc2O1", 24]
]}

###

The reader will find reported maximal inhibition values listed item by item below.
Tested on: HEK293
Assay: maximal inhibition of ZIKV NS1 production (% inhibition); higher = stronger antiviral effect

{"columns": ["Compound", "maximal inhibition"],
 "data": [
  ["c1cnc2c(c1)ccc1cccnc12", 99],
  ["COC(=O)[C@]12CCC(C)(C)C[C@H]1[C@H]1C(=O)C=C3[C@@]4(C)C=C(C#N)C(=O)C(C)(C)[C@@H]4CC[C@@]3(C)[C@]1(C)CC2", 100],
  ["CN(Cc1cnc2nc(N)nc(N)c2n1)c1ccc(C(=O)N[C@@H](CCC(=O)O)C(=O)O)cc1", 95],
  ["Cc1c(O)cccc1C(=O)N[C@@H](CSc1ccccc1)[C@H](O)CN1C[C@H]2CCCC[C@H]2C[C@H]1C(=O)NC(C)(C)C", 84],
  ["COc1ccc(-c2ccc3ncc4c(c3c2)n(-c2ccc(N3CCNCC3)c(C(F)(F)F)c2)c(=O)n4C)cn1", 102],
  ["Cc1nc2cnc3ccc(C#Cc4cccnc4)cc3c2n1-c1ccc(C(C)(C)C#N)cc1", 102],
  ["Cc1ccc([N+](=O)[O-])cc1S(=O)(=O)N(C)/N=C/c1cnc2ccc(Br)cn12", 101],
  ["CC(C)C[C@H](NC(=O)[C@H](Cc1ccccc1)NC(=O)c1cnccn1)B(O)O", 95],
  ["OC(c1cc(C(F)(F)F)nc2c(C(F)(F)F)cccc12)C1CCCCN1 (centres undefined)", 97],
  ["COc1cccc2c1C(=O)c1c(O)c3c(c(O)c1C2=O)C[C@@](O)(C(=O)CO)C[C@@H]3O[C@H]1C[C@H](N)[C@H](O[C@@H]2CCCCO2)[C@H](C)O1", 75],
  ["C[C@@H]1CC[C@@]2(OC1)O[C@H]1C[C@H]3[C@@H]4CC=C5C[C@@H](O[C@@H]6O[C@H](CO)[C@@H](O[C@@H]7O[C@@H](C)[C@H](O)[C@@H](O)[C@H]7O)[C@H](O)[C@H]6O[C@@H]6O[C@@H](C)[C@H](O)[C@@H](O)[C@H]6O)CC[C@]5(C)[C@H]4CC[C@]3(C)[C@H]1[C@@H]2C", 99],
  ["CC[C@@H]1[C@@H](C)O[C@@](O)([C@@H](C)[C@H](O)[C@H](C)[C@H]2OC(=O)/C=C/C=C/[C@H](C)[C@@H]([C@@H](C)[C@@H](O)[C@H](C)[C@@]3(O)C[C@@H](O[C@H]4C[C@H](O)[C@H](O)[C@H](C)O4)[C@H](CC)[C@@H](C)O3)OC(=O)/C=C/C=C/[C@@H]2C)C[C@H]1O[C@H]1C[C@H](O)[C@H](O)[C@H](C)O1", 100],
  ["CCn1nnc2c(N3CCOCC3)nc(-c3ccc(NC(=O)Nc4ccc(C(=O)N5CCN(C)CC5)cc4)cc3)nc21", 79],
  ["O=C1NCCc2[nH]c(-c3ccncc3)cc21", 85],
  ["CC[C@]1(O)C[C@@H]2CN(CCc3c([nH]c4ccccc34)[C@@](C(=O)OC)(c3cc4c(cc3OC)N(C)[C@H]3[C@@](O)(C(N)=O)[C@H](O)[C@]5(CC)C=CCN6CC[C@]43[C@@H]65)C2)C1", 66],
  ["Cc1cc(Nc2cc(NC(=O)c3c(Cl)cccc3Cl)ccn2)nc(N)n1", 97],
  ["COc1c(C)c2c(c(O)c1C/C=C(\\C)CCC(=O)OCCN1CCOCC1)C(=O)OC2", 105],
  ["CCN(CC)CCNC(=O)c1ccc2nc(-c3ccccc3)c(-c3ccc(CN4CCC(n5c(=O)[nH]c6ccccc65)CC4)cc3)nc2c1", 55],
  ["CC[C@@]1(O)C(=O)OCc2c1cc1n(c2=O)Cc2cc3ccccc3nc2-1", 82],
  ["O=C(Nc1cc(C(F)(F)F)cc(C(F)(F)F)c1)c1cc(Cl)ccc1O", 99],
  ["CC(C)(O)Cn1c(NC(=O)c2ccc(-c3cn[nH]c3)s2)nc2cc(CN3CCOCC3)ccc21", 103],
  ["COC(=O)Nc1nc2cc(C(=O)c3ccccc3)ccc2[nH]1", 69],
  ["Cc1cc(C2CCCCC2)n(O)c(=O)c1", 100],
  ["CO[C@@H]1[C@@H](OC)[C@H](C)[C@@](O)(CC(=O)O)O[C@H]1[C@H](C)[C@H]1O[C@@]2(CC[C@@](C)([C@H]3CC[C@@](C)([C@@H]4O[C@@H]([C@H]5O[C@](C)(O)[C@H](C)C[C@@H]5C)C[C@@H]4O[C@@H]4C[C@H](OC)[C@@H](OC)[C@H](C)O4)O3)O2)C[C@H](O)[C@H]1C", 100],
  ["CC[C@@]1(O)C(=O)OCc2c1cc1n(c2=O)Cc2cc3c(CN(C)C)c(O)ccc3nc2-1", 96],
  ["C[C@H]1CCC/C=C/[C@@H]2C[C@H](O)C[C@H]2[C@H](O)/C=C/C(=O)O1", 99],
  ["COc1c(C)c2c(c(O)c1C/C=C(\\C)CCC(=O)O)C(=O)OC2", 106],
  ["CNc1ccc2oc(C[C@H]3O[C@@]4(CC[C@H]3C)O[C@H]([C@H](C)C(=O)c3ccc[nH]3)[C@H](C)C[C@H]4C)nc2c1C(=O)O", 96],
  ["CSc1cccc(Nc2ncc3cc(-c4c(Cl)cccc4Cl)c(=O)n(C)c3n2)c1", 98]
]}
